target: T1, human 4-1BB on the surface of HEK293 cells (HEK293-Hu4-1BB) (human, UniProt Q07011 24-255); assay: FACS, HEK293-Hu4-1BB cells
T1 construct: whole, on cells; also called CD137; cell strain highly expressing human 4-1BB
Property measured: pEC50
FYI, pEC50 means -log10 of a concentration in mol per litre.

pEC50 measured on humanized anti-4-1BB nanobody C5_V2 linked to human IgG1-Fc (Fc fusion) QVQLVESGGGLVQPGGSLRLSCSASGFTFSSYAMSWVRQAPGKGLEWVSDINSGGESTFYEDSVKGRFTISRDNAKNTLYLQMNSLRAEDTAVYYCAKHPLTFTIATMNDYDYWGQGTLVTVSSEPKSADKTHTCPPCPAPELLGGPSVFLFPPKPKDTLMISRTPEVTCVVVDVEHEDPEVKFNWYVDGVEVHNAKTKPREEQYNSTYRVVSVLTVLHQDWLNGKEYKCKVSSKAFPAPIEKTISKAKGQPREPQVYTLPPSRDELTKNQVSLTCLVKGFYPSDIAVEWESNGQPENNYKTTPPVLDSDGSFFLYSKLTVDKSRWQQGNVFSCSVMHEALHNHYTQKSLSLSPGK = 8.79
